B1: TRIM63 (parent)
chain: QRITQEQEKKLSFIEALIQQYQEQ

variants of: B1; assay: protein stability index of a GFP-peptide fusion (GPS, HEK-293T) (PSI 1-6); higher = more stable; conditions: c terminus: a fixed tail appended;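 note: lentivirally expressed fusions sorted by FACS into six bins by GFP to DsRed ratio, PSI derived from sequencing read proportions per bin multiplied by bin number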
Decision: protein stability index compared against 3; not below it gives yes (1), below it gives no (0).

Field: example entries. Status: answers known.
In [3]: df
Out[3]:
   variant_descriptor  answer_label
0                 R2W        no (0)
1                Q22M        no (0)
2                Q19D        no (0)
3                 R2Q        no (0)
4                K10R        no (0)
5                 T4H        no (0)

Q: Textbook exercise: given the entry "E6F" , state whether its protein stability index is greater than or equal to 3.
Result: no (0)

Q: Textbook exercise: given the entry "E8G" , state whether its protein stability index is greater than or equal to 3.
Result: no (0)

Q: Textbook exercise: given the entry "T4G" , state whether its protein stability index is greater than or equal to 3.
Result: no (0)

Q: Textbook exercise: given the entry "E8L" , state whether its protein stability index is greater than or equal to 3.
Result: no (0)

Q: Textbook exercise: given the entry "Q7A" , state whether its protein stability index is greater than or equal to 3.
Result: no (0)

Q: Textbook exercise: given the entry "I18T" , state whether its protein stability index is greater than or equal to 3.
Result: yes (1)

Q: Textbook exercise: given the entry "L17V" , state whether its protein stability index is greater than or equal to 3.
Result: no (0)

Q: Textbook exercise: given the entry "S12L" , state whether its protein stability index is greater than or equal to 3.
Result: no (0)

Q: Textbook exercise: given the entry "L11Y" , state whether its protein stability index is greater than or equal to 3.
Result: no (0)

Q: Textbook exercise: given the entry "E15S" , state whether its protein stability index is greater than or equal to 3.
Result: no (0)

Q: Textbook exercise: given the entry "Q22T" , state whether its protein stability index is greater than or equal to 3.
Result: no (0)

Q: Textbook exercise: given the entry "S12A" , state whether its protein stability index is greater than or equal to 3.
Result: yes (1)

Q: Textbook exercise: given the entry "A16C" , state whether its protein stability index is greater than or equal to 3.
Result: no (0)
